- Test system: Bacillus subtilis
- ASSAY_NAME: Antimicrobial activity against Bacillus subtilis CGMCC1.1162 after 24 hrs by modified microdilution method
- Assay type: functional
- ASSAY_SETUP: CGMCC1.1162, 24 h
MEASUREMENT_KIND: MIC (µg/mL)
Numeric answer only, unit µg/mL assumed.

Example cases with answers are listed next.
- MOLECULE: "CCOc1ccc2[nH]c3c(c2c1)C[C@]1(C)[C@H]2CC=C4[C@@H]5[C@@H](C)[C@H](C)CC[C@]5(C(=O)NCCCN(C)C)CC[C@@]4(C)[C@]2(C)CC[C@H]1C3(C)C"
  MEASUREMENT_KIND: "MIC"
  READING: 31.2
- MOLECULE: "C[C@H]1[C@H](C)CC[C@]2(C(=O)O)CC[C@]3(C)C(=CC[C@@H]4[C@@]5(C)CCC(=O)C(C)(C)[C@@H]5CC[C@]43C)[C@H]12 [URSONIC ACID]"
  MEASUREMENT_KIND: "MIC"
  READING: 31.2
- MOLECULE: "C[C@H]1[C@H](C)CC[C@]2(C(=O)NCCCN(C)C)CC[C@]3(C)C(=CC[C@@H]4[C@@]5(C)Cc6c([nH]c7ccc(Br)cc67)C(C)(C)[C@@H]5CC[C@]43C)[C@H]12"
  MEASUREMENT_KIND: "MIC"
  READING: 31.2
- MOLECULE: "Cc1ccc2[nH]c3c(c2c1)C[C@]1(C)[C@H]2CC=C4[C@@H]5[C@@H](C)[C@H](C)CC[C@]5(C(=O)NCCCN(C)C)CC[C@@]4(C)[C@]2(C)CC[C@H]1C3(C)C"
  MEASUREMENT_KIND: "MIC"
  READING: 15.6
- MOLECULE: "C[C@H]1[C@H](C)CC[C@]2(C(=O)O)CC[C@]3(C)C(=CC[C@@H]4[C@@]5(C)Cc6c([nH]c7ccccc67)C(C)(C)[C@@H]5CC[C@]43C)[C@H]12"
  MEASUREMENT_KIND: "MIC"
  READING: 15.6

API: value(readout= MIC, system= Bacillus subtilis, query= COc1ccc2[nH]c3c(c2c1)C[C@]1(C)[C@H]2CC=C4[C@@H]5[C@@H](C)[C@H](C)CC[C@]5(C(=O)O)CC[C@@]4(C)[C@]2(C)CC[C@H]1C3(C)C ) 31.2

Param item: COC(=O)[C@]12CC[C@@H](C)[C@H](C)[C@H]1C1=CC[C@@H]3[C@@]4(C)Cc5c([nH]c6ccc(C)cc56)C(C)(C)[C@@H]4CC[C@@]3(C)[C@]1(C)CC2 31.2

Subsequent entry: C[C@H]1[C@H](C)CC[C@]2(C(=O)NCCCN(C)C)CC[C@]3(C)C(=CC[C@@H]4[C@@]5(C)Cc6c([nH]c7ccccc67)C(C)(C)[C@@H]5CC[C@]43C)[C@H]12 7.8

Now give it for C[C@H]1[C@H](C)CC[C@]2(C(=O)O)CC[C@]3(C)C(=CC[C@@H]4[C@@]5(C)Cc6c([nH]c7ccc(Br)cc67)C(C)(C)[C@@H]5CC[C@]43C)[C@H]12 too. 31.2

Another molecule to look at: COC(=O)[C@]12CC[C@@H](C)[C@H](C)[C@H]1C1=CC[C@@H]3[C@@]4(C)Cc5c([nH]c6ccccc56)C(C)(C)[C@@H]4CC[C@@]3(C)[C@]1(C)CC2 31.2

Another molecule: C[C@H]1[C@H](C)CC[C@]2(C(=O)NCCCN(C)C)CC[C@]3(C)C(=CC[C@@H]4[C@@]5(C)Cc6c([nH]c7ccc(F)cc67)C(C)(C)[C@@H]5CC[C@]43C)[C@H]12 3.9

Queued: Cc1ccc2[nH]c3c(c2c1)C[C@]1(C)[C@H]2CC=C4[C@@H]5[C@@H](C)[C@H](C)CC[C@]5(C(=O)O)CC[C@@]4(C)[C@]2(C)CC[C@H]1C3(C)C 62.5

For COC(=O)[C@]12CC[C@@H](C)[C@H](C)[C@H]1C1=CC[C@@H]3[C@@]4(C)Cc5c([nH]c6ccc(OC)cc56)C(C)(C)[C@@H]4CC[C@@]3(C)[C@]1(C)CC2 then? 31.2

Follow-up item: COC(=O)[C@]12CC[C@@H](C)[C@H](C)[C@H]1C1=CC[C@@H]3[C@@]4(C)Cc5c([nH]c6ccc(F)cc56)C(C)(C)[C@@H]4CC[C@@]3(C)[C@]1(C)CC2 31.2

Repeat for the following molecule: COC(=O)[C@]12CC[C@@H](C)[C@H](C)[C@H]1C1=CC[C@@H]3[C@@]4(C)Cc5c([nH]c6ccc(Cl)cc56)C(C)(C)[C@@H]4CC[C@@]3(C)[C@]1(C)CC2 31.2

Consider next the molecule COc1ccc2[nH]c3c(c2c1)C[C@]1(C)[C@H]2CC=C4[C@@H]5[C@@H](C)[C@H](C)CC[C@]5(C(=O)NCCCN(C)C)CC[C@@]4(C)[C@]2(C)CC[C@H]1C3(C)C in the same way. 15.6

Also, COc1cccc2c3c([nH]c12)C(C)(C)[C@@H]1CC[C@]2(C)[C@H](CC=C4[C@@H]5[C@@H](C)[C@H](C)CC[C@]5(C(=O)NCCCN(C)C)CC[C@]42C)[C@@]1(C)C3 please. 31.2
